Biological target: T1, HEK293/mPRLR (Mus musculus, UniProt Q08501)
T1 construct: HA; expressed in transfected cells; host or cells: HEK293
T1 sequence (Q08501 20-608): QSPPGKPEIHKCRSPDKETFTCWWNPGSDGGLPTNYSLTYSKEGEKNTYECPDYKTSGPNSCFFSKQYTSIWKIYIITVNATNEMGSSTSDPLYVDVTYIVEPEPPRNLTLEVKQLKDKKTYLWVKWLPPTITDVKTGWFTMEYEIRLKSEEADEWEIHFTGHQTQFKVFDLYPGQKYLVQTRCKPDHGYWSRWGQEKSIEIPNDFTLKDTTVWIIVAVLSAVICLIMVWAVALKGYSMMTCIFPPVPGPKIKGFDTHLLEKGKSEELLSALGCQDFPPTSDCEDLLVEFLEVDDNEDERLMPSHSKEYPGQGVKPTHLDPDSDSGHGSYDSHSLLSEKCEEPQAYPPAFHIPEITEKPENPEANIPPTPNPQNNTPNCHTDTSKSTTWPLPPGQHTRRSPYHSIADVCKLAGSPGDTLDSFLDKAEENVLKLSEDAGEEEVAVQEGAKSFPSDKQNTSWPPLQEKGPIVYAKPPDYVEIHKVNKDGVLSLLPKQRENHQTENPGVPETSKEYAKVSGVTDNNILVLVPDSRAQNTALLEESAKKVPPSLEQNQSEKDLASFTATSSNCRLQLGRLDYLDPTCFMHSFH
Assay: FACS cell surface binding
The following molecules are shown together with reported FACS Cell Binding (Fold Above Background) values.
Give the number; Fold Above Background is assumed, so skip it.

{"Molecule": "H1H6793P: anti-PRLR antibody, human IgG1 Fc; HCVR/LCVR SEQ ID NOs 146/154 (antibody, V domains shown, human IgG1 Fc) VH: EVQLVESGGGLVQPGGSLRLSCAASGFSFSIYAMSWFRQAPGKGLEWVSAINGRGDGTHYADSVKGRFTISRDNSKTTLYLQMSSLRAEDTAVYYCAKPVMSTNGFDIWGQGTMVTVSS VL: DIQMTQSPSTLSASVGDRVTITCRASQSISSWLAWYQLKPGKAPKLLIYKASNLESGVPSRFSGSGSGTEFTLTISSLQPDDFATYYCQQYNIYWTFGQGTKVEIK", "Unit annotation": "Fold Above Background", "Obs value": 2}

Query string: Give a short answer stating reported FACS Cell Binding (Fold Above Background) for H1H6966N: human IgG1 Fc form of H2M6966N; anti-PRLR; HCVR/LCVR SEQ ID NOs 338/346 (antibody, V domains shown, human IgG1 Fc) VH: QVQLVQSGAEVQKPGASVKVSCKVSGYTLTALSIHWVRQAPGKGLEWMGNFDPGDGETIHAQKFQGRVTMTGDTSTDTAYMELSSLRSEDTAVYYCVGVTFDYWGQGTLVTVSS VL: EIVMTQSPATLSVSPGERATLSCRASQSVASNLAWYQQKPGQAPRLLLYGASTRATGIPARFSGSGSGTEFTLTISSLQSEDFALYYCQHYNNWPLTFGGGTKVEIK .
Result string: 1

Query string: Give a short answer stating reported FACS Cell Binding (Fold Above Background) for H1H6967N: human IgG1 Fc form of H2M6967N; anti-PRLR; HCVR/LCVR SEQ ID NOs 354/362 (antibody, V domains shown, human IgG1 Fc) VH: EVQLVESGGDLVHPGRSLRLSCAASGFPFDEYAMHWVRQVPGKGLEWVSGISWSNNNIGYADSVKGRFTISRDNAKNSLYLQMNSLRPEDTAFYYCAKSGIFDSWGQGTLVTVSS VL: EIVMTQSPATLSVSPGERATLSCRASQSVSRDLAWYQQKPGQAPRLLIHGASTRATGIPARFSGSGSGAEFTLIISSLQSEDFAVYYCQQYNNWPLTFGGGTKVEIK .
Result string: 2

Query string: Give a short answer stating reported FACS Cell Binding (Fold Above Background) for H1H6959N2: human IgG1 Fc form of H2M6959N2; anti-PRLR; HCVR/LCVR SEQ ID NOs 306/314 (antibody, V domains shown, human IgG1 Fc) VH: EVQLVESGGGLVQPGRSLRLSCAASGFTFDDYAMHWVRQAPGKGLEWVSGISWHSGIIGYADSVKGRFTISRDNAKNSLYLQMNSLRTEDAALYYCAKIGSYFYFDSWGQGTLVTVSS VL: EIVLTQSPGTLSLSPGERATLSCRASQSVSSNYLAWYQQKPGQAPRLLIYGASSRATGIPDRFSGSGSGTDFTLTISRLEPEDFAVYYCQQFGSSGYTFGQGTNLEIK .
Result string: 2

Query string: Give a short answer stating reported FACS Cell Binding (Fold Above Background) for H1H6774P: anti-PRLR antibody, human IgG1 Fc; HCVR/LCVR SEQ ID NOs 34/42 (antibody, V domains shown, human IgG1 Fc) VH: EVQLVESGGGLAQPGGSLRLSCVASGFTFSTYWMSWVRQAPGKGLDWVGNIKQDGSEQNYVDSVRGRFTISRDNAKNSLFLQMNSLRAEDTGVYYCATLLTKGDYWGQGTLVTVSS VL: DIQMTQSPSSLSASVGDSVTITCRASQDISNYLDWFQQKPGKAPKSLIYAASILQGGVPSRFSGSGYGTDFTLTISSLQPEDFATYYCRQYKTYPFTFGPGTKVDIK .
Result string: 1

Query string: Give a short answer stating reported FACS Cell Binding (Fold Above Background) for H1H6792P: anti-PRLR antibody, human IgG1 Fc; HCVR/LCVR SEQ ID NOs 130/138 (antibody, V domains shown, human IgG1 Fc) VH: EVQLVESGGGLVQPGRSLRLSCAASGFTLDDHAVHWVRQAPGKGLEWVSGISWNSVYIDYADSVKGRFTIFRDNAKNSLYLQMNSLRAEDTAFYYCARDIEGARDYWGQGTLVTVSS VL: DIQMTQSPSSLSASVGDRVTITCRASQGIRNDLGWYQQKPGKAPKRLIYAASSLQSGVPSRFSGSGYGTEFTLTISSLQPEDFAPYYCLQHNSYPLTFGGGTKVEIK .
Result string: 3

Query string: Give a short answer stating reported FACS Cell Binding (Fold Above Background) for H1H6762P: anti-PRLR antibody, human IgG1 Fc; HCVR/LCVR SEQ ID NOs 2/10 (antibody, V domains shown, human IgG1 Fc) VH: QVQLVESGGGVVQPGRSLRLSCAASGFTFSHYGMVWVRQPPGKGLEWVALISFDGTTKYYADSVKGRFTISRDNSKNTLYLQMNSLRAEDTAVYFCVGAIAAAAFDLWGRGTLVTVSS VL: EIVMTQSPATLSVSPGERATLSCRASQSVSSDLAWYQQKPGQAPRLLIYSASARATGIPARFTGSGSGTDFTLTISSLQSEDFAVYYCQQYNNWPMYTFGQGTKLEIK .
Result string: 2

Query string: Give a short answer stating reported FACS Cell Binding (Fold Above Background) for H1H6953N: human IgG1 Fc form of H1M6953N; anti-PRLR; HCVR/LCVR SEQ ID NOs 274/282 (antibody, V domains shown, human IgG1 Fc) VH: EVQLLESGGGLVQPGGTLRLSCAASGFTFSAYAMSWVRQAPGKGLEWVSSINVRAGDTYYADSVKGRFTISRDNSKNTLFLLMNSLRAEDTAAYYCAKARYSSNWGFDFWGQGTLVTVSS VL: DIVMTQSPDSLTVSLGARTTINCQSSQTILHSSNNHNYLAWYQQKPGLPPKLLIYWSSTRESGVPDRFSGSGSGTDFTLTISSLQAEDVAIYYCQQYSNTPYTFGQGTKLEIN .
Result string: 2
